ASSAY REMARKS: yeast display, Sf9 membrane polyspecificity reagent, FACS + sequencing; frameworks hold sequencing errors
MEASUREMENT NAME: polyreactivity (PSR sort gate)

[[record]]
monomer_sequence = "QVQLVESGGGLVQAGGSLRLSCAASGSTLYTYAMGWYRQAPGKERELVATISWSGSSTYYADSVKGRFTISRDNAKNTVYLQMNSLKPEHTAVYYCAAPYHYWYRLDYWGQGTQVTVSS"
measurement_name = "polyreactivity (PSR sort gate)"
result = "high polyreactivity"

[[record]]
monomer_sequence = "QVQLVESGGGLVQAGGSRRLSCAASGRSFTRYAMGWYRQAPGKERVLVAAITSSGRTYYADSVKGRFTISRDNAKNTVYLQMNRLKPEDTAVYYCAKYRANALNYANRGAGDYWGQGTQVTVSS"
measurement_name = "polyreactivity (PSR sort gate)"
result = "high polyreactivity"

[[record]]
monomer_sequence = "QDQLVDSGVGLVQAGGSLRLSCAASGLIFGRNVMGWYRQAPGKERELVAAISWSGGRTYYADSVKGRFTISRDNAKNTVYLQMNSLKPEDTAVDYCATDRSTRTYRSPYDYWGQGTQVTVSS"
measurement_name = "polyreactivity (PSR sort gate)"
result = "high polyreactivity"

[[record]]
monomer_sequence = "QVQLVETGGGLVQAGGSLRLSCAASGRTFWYYAMGWYRQAPVTERELVAYADSVKGRFTISRDNAKNTVYLQMNSLKPEDTAVYYCAVGPVVWFSSSLYYTDYYYWGQGTEVTVSS"
measurement_name = "polyreactivity (PSR sort gate)"
result = "low polyreactivity"

[[record]]
monomer_sequence = "QVQHVESGGGLVQAGGSLRLSCAASGNIFGLNAMGWYRQAPGKERELVAAISKSGGSTFYADSVKGRFTISRDNAKNTVYLQMNSLKPEDTAVYYCAADHRYHWAYPRGYYYWGQGTQVTVSS"
measurement_name = "polyreactivity (PSR sort gate)"
result = "high polyreactivity"

[[record]]
monomer_sequence = "QVQLVESGGGLVQAGGSLRLSCAASGRSFPTYAMGWYRQAPGKERELVATISWSGGRTYYADSVKGRFTISRDNAKNTVYLLMNSLKPEDTAVYYCNAYISYRWYRWEYEYWGQGTQVTVSS"
measurement_name = "polyreactivity (PSR sort gate)"
result = "low polyreactivity"

[[record]]
monomer_sequence = "QVQLVESGGGLVQAGGSLRLSCAASGRIFVYNAMGWYRQAPGKEREFVAAISWDGASTYYADSVKGRFTISRDNAKNTVYLQMNSLKPEDTAVYYCAASYRRKLNYDYWGQGTQVTVSS"
measurement_name = "polyreactivity (PSR sort gate)"
result = "low polyreactivity"

[[record]]
monomer_sequence = "QVQLVESGGGLVQAGGSLRLSCAASGRIFGDYAMGWYRQAPGKERELVADITWSGGSTYYADSVKGRVTISRDNAKHTVYLQMNSLKPEDTAVYYCNADVWFYYTFDYWGQGTQVTVSS"
measurement_name = "polyreactivity (PSR sort gate)"
result = "low polyreactivity"

[[record]]
monomer_sequence = "QVQLVESGGGLVQAGGSLRLSCAASGSTYQGNAMGWYRQAPGKERELVAAISRSGGSTYADSVKGRFTISRDNAKNTVYLQMNSLKPEDTAVYYCAAYSGVGYLWFDYWGQGTQVTVSS"
measurement_name = "polyreactivity (PSR sort gate)"
result = "low polyreactivity"

[[record]]
monomer_sequence = "QVQLVESGGGLVQAGGSLRLSCDASGSIFPYNAMGWYRQAPGKEREFVAAINLSGRSTNYADSVKGRFTISRDNAKNTVYLQMNSLKPEDTAVYYCNAPFVYFWPLNFDYWGQGTQVTVSS"
measurement_name = "polyreactivity (PSR sort gate)"
result = "low polyreactivity"

[[record]]
monomer_sequence = "QVQLVESGGGLVQAGGSLRLSCAASGLTFQYYAMGWYRQAPGKERELVATISGRAGRTYYADSVKGRFTISRDNAKNTVYLQMNSLKPEDTAVYYCAAEVDYSLYTWYEYYYWGQGTQVTVSS"
measurement_name = "polyreactivity (PSR sort gate)"
result = "high polyreactivity"

[[record]]
monomer_sequence = "QVQLVESGGGLVQAGGSLRLSCAASGRTFRANAMGWSRQAPGKERELVAAITWDGGSTYYADSVKGRFTISRDNAKNTVYLQMNSLKPEDTAVYYCNTYPYLWGQGTQVTVSS"
measurement_name = "polyreactivity (PSR sort gate)"
result = "low polyreactivity"

[[record]]
monomer_sequence = "QVQLVESGGGLVQAGGSLRLSCAASGTFWWYAMGWYRQAPGKERELVASINRGGSTYYADSVKGRFTISRDNAKNTVYLQMNSLKPEDSAVYYCNARWIGRLTPYRRATYYYWGQGTQVTVSS"
measurement_name = "polyreactivity (PSR sort gate)"
result = "high polyreactivity"

[[record]]
monomer_sequence = "QVQLVESGVGLVQAGGSLRLSCAASGFIFGYYTMGWYRQAPGNERELVAAITYRGGSTYYAYSVKGRFTISRDNAKNTVYLQMNRLKPEDTAVYYCAIRTNVGHDSWGQGTEVTVSS"
measurement_name = "polyreactivity (PSR sort gate)"
result = "high polyreactivity"

[[record]]
monomer_sequence = "QVQLVESGGGLVQAGGSLRLSCAASGFIFSKYAMGWYRQAPGKERELVAAITFSGGSTYYADSVKGRFTISRDNAKNTVYLQMNSLKPEDTAVYYCNAEGSYPDVSPVLGYDYWGQGTQVTVSS"
measurement_name = "polyreactivity (PSR sort gate)"
result = "low polyreactivity"

[[record]]
monomer_sequence = "QVQLVESGGGLVQAGGSLRLSCAASGFTLWLNAMGWYRQAPGKERELLAAITTSDDGTYYADSVKGRFTISRDNAKNTVYLQMNSLKPEETAVYYCAADYYSVQYDYWGQGTQVTVSS"
measurement_name = "polyreactivity (PSR sort gate)"
result = "low polyreactivity"

[[record]]
monomer_sequence = "QVQLVESGGGLVQAGGSLRLSCAASGITFTGYAMGWSRQAPGKERELVAAISKRGARTYYADSVKGRFTNSRDNAKNTVYIQMNSLKPEDTAVYYCAADSTAQDIAGLYYWGQGTQVTVSS"
measurement_name = "polyreactivity (PSR sort gate)"
result = "high polyreactivity"

[[record]]
monomer_sequence = "QVQLVDSGGGLVQAGGSLPLSCAASGSILLPYAMGWYRQAPGKERELVAALSQRGGSTYYADSVKGRFTISRDNAKNTVYLQMNSLKPEDTAVYYCNAVGGEHTPSQAFAGYDYWGQGTQVTVSS"
measurement_name = "polyreactivity (PSR sort gate)"
result = "low polyreactivity"

[[record]]
monomer_sequence = "QVQLVESGGGLVQAGGSLRLSCAASGRTFRRYAMGWYRQAPGKERELVAAISYSGTTTYYADSVKGRFTISRDNAKNTVYLQMNSLKPEDTAVYYCNKATAFGLDYWGQGTQVTVSS"
measurement_name = "polyreactivity (PSR sort gate)"
result = "high polyreactivity"

[[record]]
monomer_sequence = "QVQLVESGGGLVQAGGSLRLSCAASGRIFYFYAMGWYRQAPGKERELVASISSGGITNYADSVKGRFTISRDNAKNTVYLQMNSLKPEDTAVYYCAADYGYYSRLYYWGQGTQVTVSS"
measurement_name = "polyreactivity (PSR sort gate)"
result = "low polyreactivity"

[[record]]
monomer_sequence = "QVQLVESGGGLVHAGGSLRLSCAASGSTLSYAMGWYRQAPGKERELVAAISRSGGSTYYADSVKGRFTISRDNAKNTVYLQMNSLKPEDTAVYYCAADPYPSYANGGYYWGQGTQVTVSS"
measurement_name = "polyreactivity (PSR sort gate)"
result = "high polyreactivity"


====

ASSAY REMARKS: yeast display, Sf9 membrane polyspecificity reagent, FACS + sequencing; frameworks hold sequencing errors
MEASUREMENT NAME: polyreactivity (PSR sort gate)

[[record]]
monomer_sequence = "QVQLVESGRGLVQAGGSLRLSCAASGFIFYSNAMGWYRQAPGKERELVAAISRGGGSTYFADSLKGRFTISRDNAKNTVYLQMNSLKPEDTAVYYCAKRRLSPQDDYWGQGTQVTVSS"
result = "high polyreactivity"

[[record]]
monomer_sequence = "QVQLVESGGGLVQAGGSLRLSCAASGRTFFKNAMGWYRQAPGKERELVASISSRSGTTYYADSVKGRFTISRDNAKNTVYLQMNSLKPEDTAVYYCAADIYWWRGSTHGMDYWGQGTQVTVSS"
result = "high polyreactivity"

[[record]]
monomer_sequence = "QVQLVESGGGLVQAGGSLRLICAASGSTFSSYFMGWYRQAPRKERKLVAAITRSGVYTYYADSVKGRFTISRDNAKNTVYLQMNSLKPEDTAVYYCARRAKGAYWNEYNYWGQGTQVTVSS"
result = "high polyreactivity"


====

ASSAY REMARKS: yeast display, Sf9 membrane polyspecificity reagent, FACS + sequencing; frameworks hold sequencing errors
MEASUREMENT NAME: polyreactivity (PSR sort gate)

[[record]]
monomer_sequence = "QVQLVESGGGLVQAGGSLRLSCAASGRIFRKYAMGWYIQAPGKEREFVASIRSRGDSTYYADSVKGRFTISRDNAKNTVYLQMNSMKPEDTAVYYCAAVSGSGYDYWGQGTQVTVSS"
result = "high polyreactivity"

[[record]]
monomer_sequence = "QVLLVESGGGLVQAGGSLSLSCAASGRTFFNNAMGWYRQAPGQEREFVAAISRSGSSTYYAVSVKGRFTISRDNAKNTVYLQMNSLKPEHTAVYYCASYLYYYSAYGYWGQGTQVTVSS"
result = "high polyreactivity"

[[record]]
monomer_sequence = "QVQLVESGGGLVQAGGSLRLSCAASGRIFSYNVMGWYRQAPGKERELVAAITSNDGSTYYADSVKGRFTISRDNAKNTVYLQMNSLKPEVTAVYYCNADYGPVSLKEPFRDDYWGQGNQVTVSS"
result = "low polyreactivity"

[[record]]
monomer_sequence = "QVQLVESGGCLVQAGGSLRLSCAASGRIFVPNAMGWYRQAPGKERELVAAINWGGGSTYYADSVKGRFTISRDNAKNTVYLQMNSLKPEDTAVYYCAADHPYTMGVLPNQQFDYWGQGTQVTVSS"
result = "low polyreactivity"

[[record]]
monomer_sequence = "QVQLVESGGGLVQAGGSLRLSCAASGSIFYSYAMGWYRQAPGKERELVAVITRGGSTNYADSVKGRFTISRDNAKNTVYLQLNSLKPEDTAVYYCNKDRYGKVFRYPPYYRSSPYDYWGQGTQVTVSS"
result = "high polyreactivity"

[[record]]
monomer_sequence = "QVQLVESGGGLVQAGGSLRLSSASSGSIFESNALGWYRQAPGKEREFVAAIDQNDGSTNYADSVKGRFTISRDNAKNTVYLQMYSLNPEDTAVYYCAASPGTASYDYWGQGTQVTVSS"
result = "low polyreactivity"

[[record]]
monomer_sequence = "QGQLVESGGGLVQAGGSLRLSCAASGSIFSLNSMGWYRQAPGKERELVAASGGGSTYYADSVKGRFTISRDNAKNTVYLQMNSLKTEDTAVYYCAGDQSFDYDFSHYYYWGQGTQVTVSS"
result = "low polyreactivity"

[[record]]
monomer_sequence = "QVQLVESGGGLVQAGGSLRLSCAASGFTFGRTVRGWYRQAPGKERELVAAISSSGGSTYYADSVKGRFTISRDNAKNTVYLQMNSLKPEDTAVYYCAAVLVSWYRNPQYDYWGQGTQVTVSS"
result = "high polyreactivity"

[[record]]
monomer_sequence = "QVQLVESGGGLVQAGGSLRLSCAASGNIFLYYAMGWYRQAPGKERELDADIDSSGASTYYADSVKGRFTISRDNAKNNVYLQMNSLKPEDTAVYYCAAEFHWWYAGYDYGYWGQGTQVTVSS"
result = "low polyreactivity"

[[record]]
monomer_sequence = "QVQLVESGGGLVQAGGSLRLSCAASGFTFYGYAKGWYRQAPGKERELVAAISKRGGSTYYADSVKGRFTISRDNAKNPVYLQMNSLKPEDTAVYYCNADKHYQYRYRQYGYWGQGTQVTVSS"
result = "high polyreactivity"

[[record]]
monomer_sequence = "QVQLVESGGGLVQAGGSLRLSCAASVKIFAWYALGWYRKAPGKEMELVADISSRGGSTYYADSVKGRFTISRDNAKNTVYLQMNSLKPEDTAVYYCAAVWYWTQDYDYWGQGTQVTGSS"
result = "low polyreactivity"

[[record]]
monomer_sequence = "HVQLVESGGGLVQAGGSLRLSCAASGFTFGWNDMGWYRQAPGKERELVAAITWSGGSTYYADSVKGRFTISRDNAKNTVYLQMNSLKPEDTAVYYCAAVVSDYVWRYEYWGQGTQVTVSS"
result = "low polyreactivity"

[[record]]
monomer_sequence = "EVQLVESGGGLVQAGGSLRLSCAASGRTFSYYAMGCYRQAPGKERELVAAISGGGSTNYADSVKGRFTISRDNAKYTVYLQMNSLKPEDTAVYYCAVGGFLRYRISLGKSYYYWGQGTQVTVSS"
result = "high polyreactivity"

[[record]]
monomer_sequence = "QVQLVESGGGLVQAGGSLRLSCAASGSIFGPYAMGWYRQAPGKERELVAAISLGGGSTSYADSVKGRFTISRDNAKNTVYLQMNSLKPEDTAVYYCATEDFRTDTGMYYWGQGTQVTVSS"
result = "low polyreactivity"

[[record]]
monomer_sequence = "QVQLVESGGGLVQAGGSLRLSFAASGRIFGGYGMGWYRQAPGKERELVAAIDADAGSTYYADSVKGRFTISRDNAKNTVYLQLNSLKPEDTAVYYCAPVDQVAVDKHDYWGQGTQVTVSS"
result = "low polyreactivity"

[[record]]
monomer_sequence = "QVQLVESGGGLVQAGGSLRLTCAASGSIFRSYAMGWYRQAPGNERELVAAISWRGGRTYYADSVKGRFTISRDNAKNTVYLQRNSLKPADTAVYYCAARKRAQQGTRDHDYWGQGTQVTVSS"
result = "high polyreactivity"

[[record]]
monomer_sequence = "QVQHVESGGGLVQAGGSLRLSGAASGSTFQSYAMGWYRQAPGQERELVAAISTSDTDRTYYADSVKGRFTISRDNAKNTVYLQMNSLKPEDTAVYYCNADGYAHGDWYGYWGQGTQVTVSS"
result = "low polyreactivity"

[[record]]
monomer_sequence = "QVQLVESGGGLVQAGGSLRLSCAASGSISTVNVMGWYRQAPGKERELVAAISSGTSTHYADSVKVRFTISRDNAKNTVYLQMNSLKPEDTAVYYCAAYFYRQYLYFLYEYDYWGQGTQVTVSS"
result = "low polyreactivity"

[[record]]
monomer_sequence = "QVQLVESGGGLVQAGGSLRLSCAASGSTFARNARGWYRQAPGKERELVAAITTRGSSTYYADSVKGRFTISRDNAKNTVYLQMHSLKPEDTAVYYCAADSRRSWYWGGYRQTGMGYWGQGTQVTVSS"
result = "high polyreactivity"

[[record]]
monomer_sequence = "QVQLVESGGGLVQAGGSLRLSCAASGFTFYYYAMGWYRQAPRKERQLVAAFSWSGGSTYYADSVKGRFTISRDYAKNTVYLQMNRLKPVDTAVYYCNAYPGYRSRSDYGYWGQGTQVTVSS"
result = "high polyreactivity"

[[record]]
monomer_sequence = "QVQVVESGGGLVQAGGSLRLSCAASGSTFVIYAMGWYRQAPGKEMELVAGITYSGGRTYYADSVKGRFTISRDNAKNTVYLHMNSLKPEDTAVYYCNARSTWPSGRYAHYRRYYYWGQGTQVTVSS"
result = "high polyreactivity"

